Test protocol: chemical genetic growth profiling, strain panel (AID 1159580);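 further: tested at 20 µM; growth read once vehicle control cultures reached saturation at 30 °C; lower values mean less growth of the strain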
Experimental conditions: S. cerevisiae deletion strains, growth OD, locus YDR318W, strain mcm21
The campaign covered roughly 5,500 compounds. About 2,000 (36%) were called active. About 18% were inconclusive and are not listed. No stated cut-off is given here; in the data, active means normalized growth mostly below about 0.91 (no sharp cut-off); inconclusive means no clear call, values can overlap the other calls; inactive means mostly above about 0.92. The list shows a part of the results.
Possible outcomes: active, inactive

>  <Compound>
CCN(CC)CCNc1ccc(CO)c2sc3ccccc3c(=O)c12

>  <Class assignment>
inactive

$$$$
>  <Compound>
CC(=O)[C@H]1CCC2C3CC=C4C[C@@H](O)CC[C@]4(C)C3CC[C@@]21C (stereo not given in full)

>  <Class assignment>
inactive

$$$$
>  <Compound>
Cc1coc2ccccc2c1=O

>  <Class assignment>
inactive

$$$$
>  <Compound>
O=c1oc2ccccc2c(O)c1Cc1c(O)c2ccccc2oc1=O

>  <Class assignment>
inactive

$$$$
>  <Compound>
COc1ccc(C(=O)/C=C/c2ccccc2)cc1

>  <Class assignment>
active

$$$$
>  <Compound>
COc1cc([C@@H]2c3cc4c(cc3C(O[C@@H]3O[C@@H]5CO[C@@H](c6cccs6)OC5[C@H](O)[C@H]3O)C3COC(=O)[C@@H]32)OCO4)cc(OC)c1O (stereo not given in full)

>  <Class assignment>
inactive

$$$$
>  <Compound>
CC(C)=CCc1c2c(c(O)c3c(=O)c(O)c(-c4ccccc4)oc13)C=CC(C)(C)O2

>  <Class assignment>
active

$$$$
>  <Compound>
O=c1c2ccccc2oc2ccc(O)cc12

>  <Class assignment>
active

$$$$
>  <Compound>
COc1cc2c3cc1Oc1cc(ccc1O)C[C@@H]1c4c(cc(OC)c(O)c4Oc4ccc(cc4)C[C@@H]3N(C)CC2)CC[N+]1(C)C

>  <Class assignment>
inactive

$$$$
>  <Compound>
CC(=O)CC(c1ccccc1)c1c(O)c2ccccc2oc1=O (stereo not given)

>  <Class assignment>
inactive

$$$$
>  <Compound>
CCC(/C=C/[C@@H](C)[C@H]1CCC2C3CC=C4C[C@@H](O)CC[C@]4(C)C3CC[C@@]21C)C(C)C (stereo not given in full)

>  <Class assignment>
inactive

$$$$
>  <Compound>
O=c1c(-c2cc(O)c(O)c(O)c2)coc2cc(O)c(O)c(O)c12

>  <Class assignment>
inactive

$$$$
>  <Compound>
O=C1CC[C@]23C=CC(=O)NCCCCNCCCNC(=O)/C=C/c4ccc(c2c4)O[C@@H]3C1

>  <Class assignment>
inactive

$$$$
>  <Compound>
CCC(CCC(C)[C@H]1CCC2C3CC=C4C[C@@H](O)CC[C@]4(C)C3CC[C@@]21C)C(C)C (stereo not given in full)

>  <Class assignment>
inactive

$$$$
>  <Compound>
CC[N+]1(C)CCCC(OC(=O)C(O)(c2ccccc2)c2ccccc2)C1 (stereo not given)

>  <Class assignment>
inactive

$$$$
>  <Compound>
CCCN1C[C@H](CSC)C[C@@H]2c3cccc4[nH]cc(c34)C[C@H]21

>  <Class assignment>
inactive

$$$$
>  <Compound>
CC(C)(Oc1ccc(Cl)cc1)C(=O)O

>  <Class assignment>
inactive

$$$$
>  <Compound>
CC1(C)O[C@@H]2CC3C4CCC5=CC(=O)C=C[C@]5(C)[C@@]4(F)[C@@H](O)C[C@]3(C)[C@]2(C(=O)CO)O1 (stereo not given in full)

>  <Class assignment>
inactive

$$$$
>  <Compound>
CCC1C2CC3C4N(C)c5ccccc5C45CC(C2C5OC(C)=O)N3C1OC(C)=O (stereo not given)

>  <Class assignment>
inactive

$$$$
>  <Compound>
C[N+]1(CCCCC[N+]2(C)CCCC2)CCCC1

>  <Class assignment>
inactive

$$$$
